assay: AUC (0 to t) in fasted Sprague-Dawley rat at 10 mg/kg, po measured for 24 hrs by LC-MS/MS analysis; type: ADME, organism-based; details: in vivo
recorded endpoint: AUC(0-t) at 24 h (ng·h/mL)
Number in ng·h/mL, nothing else.

What the record says about O=S(=O)(Nc1cc(-c2cnc3[nH]nc(-c4ccncc4)c3c2)cnc1Cl)c1ccc(F)cc1 : AUC(0-t) at 24 h is 104

---

assay: AUC (0 to infinity) in fasted Sprague-Dawley rat at 2 mg/kg, iv measured for 24 hrs by LC-MS/MS analysis; format: ADME, organism-based; conditions: in vivo
recorded endpoint: AUC(0-inf) (ng·h/mL)
Entry rule: numbers only, all in ng·h/mL.

The compound listed as O=S(=O)(Nc1cc(-c2cnc3[nH]nc(-c4ccncc4)c3c2)cnc1Cl)c1ccc(F)cc1 shows AUC(0-inf) equal to 903

Where do the numbers come from? From ChEMBL document CHEMBL5620391.
